- System: PRC2-mediated histone H3 methylation in Pfeiffer cells (EZH2 A677G)
- Protocol Notes: Tri-Methyl Histone H3 (Lys 27) sandwich ELISA in Pfeiffer cells
- Assay type: cell-based
- Run Parameters: Homo sapiens, 96 hours incubation, H3K27me3 ELISA, read-out: IC50 (nM), Inhibition of EZH2-mediated Histone H3 Trimethylation
Quantity Name: IC50

Challenge: // fetch IC50 given entry `CN(C)C(=O)c1cc(-c2cnc(NCc3c(F)ccc4c3CCO4)c3cnncc23)n(C)n1`
Response given: ≤ 100 nM

Challenge: // fetch IC50 given entry `CN(C)C(=O)c1ccc(-c2cnc(NCc3c(F)ccc4c3CCO4)c3cnncc23)cc1`
Response given: ≤ 100 nM

Challenge: // fetch IC50 given entry `CN(C)S(=O)(=O)c1ccc(-c2cnc(NCc3c(F)ccc4c3CCO4)c3cnncc23)cn1`
Response given: ≤ 100 nM

Others:
Challenge: // fetch IC50 given entry `CN1CCc2cc(-c3cnc(NCc4c(F)ccc5c4CCO5)c4cnncc34)ccc2C1`
Response given: ≤ 100 nM

Challenge: // fetch IC50 given entry `Cc1cc(-c2cnc(NCc3c(F)ccc4c3CCO4)c3cnccc23)n(C)n1`
Response given: 100 to 500 nM

Challenge: // fetch IC50 given entry `CN(C)C(=O)c1cc(-c2cnc(NCc3c(F)ccc4c3CCO4)c3cnccc23)n(C)n1`
Response given: ≤ 100 nM

Challenge: // fetch IC50 given entry `Cn1nncc1-c1cnc(NCc2c(F)ccc3c2CCO3)c2c[nH]c(=O)cc12`
Response given: > 500 nM

Challenge: // fetch IC50 given entry `COc1nccc2c(NCc3c(F)ccc4c3CCO4)ncc(-c3cc(C)nn3C)c12`
Response given: > 500 nM

Challenge: // fetch IC50 given entry `Cc1cc(-c2cnc(NCc3c(F)ccc4c3CCO4)c3cnncc23)n(C)n1`
Response given: ≤ 100 nM

Challenge: // fetch IC50 given entry `Cn1nc(C#N)cc1-c1cnc(NCc2c(F)ccc3c2CCO3)c2cnccc12`
Response given: > 500 nM

Challenge: // fetch IC50 given entry `CSc1ncc2c(NCc3c(F)ccc4c3CCO4)ncc(-c3cc(C)nn3C)c2n1`
Response given: 100 to 500 nM

Challenge: // fetch IC50 given entry `Cc1c(-c2cnc(NCc3c(F)ccc4c3CCO4)c3cnncc23)ccc(CN(C)C)c1F`
Response given: ≤ 100 nM

Challenge: // fetch IC50 given entry `Cc1cc(-c2cnc(NCc3c(F)ccc4c3CCO4)c3cncnc23)n(C)n1`
Response given: ≤ 100 nM

Challenge: // fetch IC50 given entry `COc1ccc2c(NCc3c(F)ccc4c3CCO4)ncc(-c3cc(C)nn3C)c2n1`
Response given: > 500 nM

###

Recorded IC50 for the following compounds
- Study System: purified human, His-tagged PRC2 complex (Homo sapiens (Human), UniProt O75530)
- Sequence (Q15910 whole entry): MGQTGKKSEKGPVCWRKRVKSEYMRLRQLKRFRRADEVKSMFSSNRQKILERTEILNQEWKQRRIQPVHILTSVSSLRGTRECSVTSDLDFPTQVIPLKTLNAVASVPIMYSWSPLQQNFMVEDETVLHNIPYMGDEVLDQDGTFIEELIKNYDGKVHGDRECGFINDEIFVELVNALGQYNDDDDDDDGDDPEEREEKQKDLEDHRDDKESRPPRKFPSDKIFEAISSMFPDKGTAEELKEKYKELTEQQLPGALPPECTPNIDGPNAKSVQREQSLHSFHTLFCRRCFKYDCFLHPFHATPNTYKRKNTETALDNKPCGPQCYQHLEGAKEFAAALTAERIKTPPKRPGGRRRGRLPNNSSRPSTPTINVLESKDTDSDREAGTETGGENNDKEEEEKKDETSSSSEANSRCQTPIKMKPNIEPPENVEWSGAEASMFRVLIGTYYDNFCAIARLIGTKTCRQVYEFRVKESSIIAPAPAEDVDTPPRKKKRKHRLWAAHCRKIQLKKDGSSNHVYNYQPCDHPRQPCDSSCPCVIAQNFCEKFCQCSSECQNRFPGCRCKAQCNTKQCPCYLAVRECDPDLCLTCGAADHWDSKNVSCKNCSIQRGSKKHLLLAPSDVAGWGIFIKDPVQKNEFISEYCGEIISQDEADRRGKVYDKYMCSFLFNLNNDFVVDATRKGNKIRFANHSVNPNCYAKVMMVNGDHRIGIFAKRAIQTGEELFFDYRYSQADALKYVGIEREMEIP
- Sequence (O75530 whole entry): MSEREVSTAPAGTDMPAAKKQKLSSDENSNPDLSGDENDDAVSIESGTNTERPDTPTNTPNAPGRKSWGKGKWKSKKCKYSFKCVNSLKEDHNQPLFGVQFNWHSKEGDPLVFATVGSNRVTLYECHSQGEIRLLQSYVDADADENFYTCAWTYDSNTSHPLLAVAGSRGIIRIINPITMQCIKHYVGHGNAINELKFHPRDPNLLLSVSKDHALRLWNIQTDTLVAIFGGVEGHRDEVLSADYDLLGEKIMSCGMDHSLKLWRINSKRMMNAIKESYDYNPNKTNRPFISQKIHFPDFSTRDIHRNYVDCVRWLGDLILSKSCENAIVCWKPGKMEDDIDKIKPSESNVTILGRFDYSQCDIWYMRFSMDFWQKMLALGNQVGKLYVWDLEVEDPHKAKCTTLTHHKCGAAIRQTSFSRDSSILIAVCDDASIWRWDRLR
- Sequence (Q15022 whole entry partner): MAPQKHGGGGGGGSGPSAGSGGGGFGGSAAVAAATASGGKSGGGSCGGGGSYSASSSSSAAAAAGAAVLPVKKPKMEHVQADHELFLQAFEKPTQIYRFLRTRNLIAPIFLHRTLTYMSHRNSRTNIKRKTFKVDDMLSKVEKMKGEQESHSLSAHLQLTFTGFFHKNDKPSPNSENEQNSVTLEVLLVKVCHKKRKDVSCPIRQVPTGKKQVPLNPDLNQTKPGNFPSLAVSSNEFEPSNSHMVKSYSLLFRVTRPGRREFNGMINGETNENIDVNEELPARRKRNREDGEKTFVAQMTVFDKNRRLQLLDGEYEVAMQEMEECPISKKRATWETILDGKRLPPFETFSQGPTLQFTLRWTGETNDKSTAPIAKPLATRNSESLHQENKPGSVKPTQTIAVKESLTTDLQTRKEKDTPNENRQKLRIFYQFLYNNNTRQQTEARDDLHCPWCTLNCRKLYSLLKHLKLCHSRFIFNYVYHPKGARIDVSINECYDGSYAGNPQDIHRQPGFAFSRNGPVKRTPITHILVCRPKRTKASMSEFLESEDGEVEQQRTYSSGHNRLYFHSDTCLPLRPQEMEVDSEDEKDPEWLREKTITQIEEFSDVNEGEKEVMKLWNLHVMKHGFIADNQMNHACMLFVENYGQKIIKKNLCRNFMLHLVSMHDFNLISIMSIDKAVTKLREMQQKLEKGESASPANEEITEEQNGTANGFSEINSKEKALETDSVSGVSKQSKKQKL
- Sequence (Q6ZN18 whole entry partner): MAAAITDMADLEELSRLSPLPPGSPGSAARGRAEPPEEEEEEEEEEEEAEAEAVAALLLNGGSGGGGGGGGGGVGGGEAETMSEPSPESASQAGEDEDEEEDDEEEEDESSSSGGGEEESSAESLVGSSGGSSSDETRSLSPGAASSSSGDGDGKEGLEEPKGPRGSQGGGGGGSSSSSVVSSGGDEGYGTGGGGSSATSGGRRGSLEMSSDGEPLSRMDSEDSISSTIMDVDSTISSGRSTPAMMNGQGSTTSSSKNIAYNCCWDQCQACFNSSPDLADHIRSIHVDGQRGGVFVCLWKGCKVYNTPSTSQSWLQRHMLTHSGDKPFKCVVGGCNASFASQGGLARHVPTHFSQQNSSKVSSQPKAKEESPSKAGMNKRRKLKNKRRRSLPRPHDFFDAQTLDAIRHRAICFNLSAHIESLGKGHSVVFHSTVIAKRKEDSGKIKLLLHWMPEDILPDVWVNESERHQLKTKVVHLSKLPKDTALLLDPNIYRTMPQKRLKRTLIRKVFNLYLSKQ
- Sequence (Q09028 whole entry partner): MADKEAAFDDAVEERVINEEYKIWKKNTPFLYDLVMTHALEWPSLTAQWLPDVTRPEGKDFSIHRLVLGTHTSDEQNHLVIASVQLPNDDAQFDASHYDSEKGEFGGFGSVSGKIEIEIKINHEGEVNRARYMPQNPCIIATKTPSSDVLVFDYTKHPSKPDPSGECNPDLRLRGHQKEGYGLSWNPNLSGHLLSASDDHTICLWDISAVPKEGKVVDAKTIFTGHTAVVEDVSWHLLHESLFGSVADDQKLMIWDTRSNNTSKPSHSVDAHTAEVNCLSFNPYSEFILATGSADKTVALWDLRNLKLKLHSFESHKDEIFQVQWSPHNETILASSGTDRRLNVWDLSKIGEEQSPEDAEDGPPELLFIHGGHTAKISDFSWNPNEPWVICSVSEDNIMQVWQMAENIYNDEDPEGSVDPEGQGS
- Protocol Notes: Hot Spot HMT assay, inhibition of PRC2 enzymatic activity
- Run Parameters: 10 nM PRC2 complex, 0.05 mg/ml core histone H3, 1 μM 3H-SAM, 1 hr at 30° C.; read-out: IC50, Inhibition of PRC2-mediated Enzymatic Activity

Challenge: // fetch IC50 given entry CCNCc1ccc(-c2cnc(NCc3c(F)ccc4c3CCO4)c3cnncc23)c(C)c1 [Example 20]
Response given: < 100 nM

Others:
Challenge: // fetch IC50 given entry CN(C)Cc1ccc(-c2cnc(NCc3c(F)ccc4c3CCO4)c3c[nH]c(=O)cc23)cc1 [Example 38]
Response given: 100 to 250 nM

Challenge: // fetch IC50 given entry Cc1cc(-c2cnc(NCc3c(F)ccc4c3CCO4)c3cnc(OCCN(C)C)cc23)n(C)n1 [Example 44]
Response given: > 250 nM

Challenge: // fetch IC50 given entry CCOc1cc2c(-c3cc(C)nn3C)cnc(NCc3c(F)ccc4c3CCO4)c2cn1 [Example 42]
Response given: 100 to 250 nM

Challenge: // fetch IC50 given entry CN(C)S(=O)(=O)c1ccc(-c2cnc(NCc3c(F)ccc4c3CCO4)c3cnncc23)cn1 [Example 10]
Response given: < 100 nM

Challenge: // fetch IC50 given entry Cc1cc(-c2cnc(NCc3c(F)ccc4c3CCO4)c3cnccc23)n(C)n1 [Example 29]
Response given: < 100 nM

Challenge: // fetch IC50 given entry Cn1nc(C#N)cc1-c1cnc(NCc2c(F)ccc3c2CCO3)c2cnccc12 [Example 33]
Response given: 100 to 250 nM

Challenge: // fetch IC50 given entry COc1ncnc2c(NCc3c(F)ccc4c3CCO4)ncc(-c3cc(C)nn3C)c12 [Example 57]
Response given: > 250 nM

Challenge: // fetch IC50 given entry Cc1cc(-c2cnc(NCc3c(F)ccc4c3CCO4)c3c[nH]c(=O)cc23)n(C)n1 [Example 35]
Response given: < 100 nM

Challenge: // fetch IC50 given entry Cc1cc(-c2cnc(NCc3c(F)ccc4c3CCO4)c3cnncc23)ccn1 [Example 12]
Response given: < 100 nM

Challenge: // fetch IC50 given entry COCCOc1cc2c(-c3cc(C)nn3C)cnc(NCc3c(F)ccc4c3CCO4)c2cn1 [Example 45]
Response given: 100 to 250 nM

###

- Test system: PRC2-mediated histone H3 methylation in Pfeiffer cells (EZH2 A677G)
- Protocol Notes: Tri-Methyl Histone H3 (Lys 27) sandwich ELISA in Pfeiffer cells
- Format: cell-based
- Run Parameters: Homo sapiens, 96 hours incubation, H3K27me3 ELISA, read-out: IC50 (nM), Inhibition of EZH2-mediated Histone H3 Trimethylation
Quantity Name: IC50

Worked examples follow.
Challenge: Consider the compound Cc1cc(-c2cnc(NCc3c(F)ccc4c3CCO4)c3cnc(N(C)C)cc23)n(C)n1 [Example 49] tested on PRC2-mediated histone H3 methylation in Pfeiffer cells (EZH2 A677G); state its IC50.
Response given: > 500 nM

Challenge: Consider the compound Cc1cc(-c2cnc(NCc3c(F)ccc4c3CCO4)c3ccc(=O)[nH]c23)n(C)n1 [Example 53] tested on PRC2-mediated histone H3 methylation in Pfeiffer cells (EZH2 A677G); state its IC50.
Response given: 100 to 500 nM

Challenge: Consider the compound CNS(=O)(=O)c1ccc(-c2cnc(NCc3c(F)ccc4c3CCO4)c3cnncc23)cc1 [Example 7] tested on PRC2-mediated histone H3 methylation in Pfeiffer cells (EZH2 A677G); state its IC50.
Response given: ≤ 100 nM

Challenge: Consider the compound NS(=O)(=O)c1ccc(-c2cnc(NCc3c(F)ccc4c3CCO4)c3cnncc23)cc1 [Example 1] tested on PRC2-mediated histone H3 methylation in Pfeiffer cells (EZH2 A677G); state its IC50.
Response given: ≤ 100 nM

Challenge: Consider the compound CN(C)Cc1ccc(-c2cnc(NCc3c(F)ccc4c3CCO4)c3c[nH]c(=O)cc23)cc1 [Example 38] tested on PRC2-mediated histone H3 methylation in Pfeiffer cells (EZH2 A677G); state its IC50.
Response given: 100 to 500 nM

Challenge: Consider the compound CNCc1ccc(-c2cnc(NCc3c(F)ccc4c3CCO4)c3cncnc23)c(C)c1 [Example 26] tested on PRC2-mediated histone H3 methylation in Pfeiffer cells (EZH2 A677G); state its IC50.
Response given: ≤ 100 nM

Others:
Challenge: Consider the compound O=c1cc2c(-c3ccc(CN4CCCC4)cc3)cnc(NCc3c(F)ccc4c3CCO4)c2c[nH]1 [Example 37] tested on PRC2-mediated histone H3 methylation in Pfeiffer cells (EZH2 A677G); state its IC50.
Response given: 100 to 500 nM

Challenge: Consider the compound Fc1ccc2c(c1CNc1ncc(-c3ccc(CN4CCCC4)cc3)c3cnncc13)CCO2 [Example 2] tested on PRC2-mediated histone H3 methylation in Pfeiffer cells (EZH2 A677G); state its IC50.
Response given: ≤ 100 nM

Challenge: Consider the compound Cc1cc(C(=O)N(C)C)ncc1-c1cnc(NCc2c(F)ccc3c2CCO3)c2cnncc12 [Example 4] tested on PRC2-mediated histone H3 methylation in Pfeiffer cells (EZH2 A677G); state its IC50.
Response given: ≤ 100 nM

Challenge: Consider the compound Cn1nc(C#N)cc1-c1cnc(NCc2c(F)ccc3c2CCO3)c2c[nH]c(=O)cc12 [Example 48] tested on PRC2-mediated histone H3 methylation in Pfeiffer cells (EZH2 A677G); state its IC50.
Response given: 100 to 500 nM

###

Recorded IC50 for the following molecules
- Tested on: PRC2-mediated histone H3 methylation in Pfeiffer cells (EZH2 A677G)
- Protocol Notes: Tri-Methyl Histone H3 (Lys 27) sandwich ELISA in Pfeiffer cells
- Type: cell-based
- Run Parameters: Homo sapiens, 96 hours incubation, H3K27me3 ELISA, read-out: IC50 (nM), Inhibition of EZH2-mediated Histone H3 Trimethylation

Challenge: // fetch IC50 given entry Cc1ncccc1-c1cnc(NCc2c(F)ccc3c2CCO3)c2cnncc12 [Example 11]
Response given: ≤ 100 nM

Challenge: // fetch IC50 given entry Cc1cc(-c2cnc(NCc3c(F)ccc4c3CCO4)c3cccnc23)n(C)n1 [Example 51]
Response given: 100 to 500 nM

Challenge: // fetch IC50 given entry COCCOc1cc2c(-c3cc(C)nn3C)cnc(NCc3c(F)ccc4c3CCO4)c2cn1 [Example 45]
Response given: 100 to 500 nM

Others:
Challenge: // fetch IC50 given entry Cc1cc(CN(C)C)ccc1-c1cnc(NCc2c(F)ccc3c2CCO3)c2cncnc12 [Example 24]
Response given: ≤ 100 nM

Challenge: // fetch IC50 given entry Cc1cc(-c2cnc(NCc3c(F)ccc4c3CCO4)c3cnc(OCCN(C)C)cc23)n(C)n1 [Example 44]
Response given: 100 to 500 nM

Challenge: // fetch IC50 given entry Cc1cc(-c2cnc(NCc3c(F)ccc4c3CCO4)c3cc[nH]c(=O)c23)n(C)n1 [Example 55]
Response given: > 500 nM

Challenge: // fetch IC50 given entry CN(C)CCn1nccc1-c1cnc(NCc2c(F)ccc3c2CCO3)c2c[nH]c(=O)cc12 [Example 46]
Response given: 100 to 500 nM

Challenge: // fetch IC50 given entry Cc1ncccc1-c1cnc(NCc2c(F)ccc3c2CCO3)c2c[nH]c(=O)cc12 [Example 36]
Response given: 100 to 500 nM

Challenge: // fetch IC50 given entry CN(C)C(=O)c1cc(-c2cnc(NCc3c(F)ccc4c3CCO4)c3c[nH]c(=O)cc23)n(C)n1 [Example 47]
Response given: 100 to 500 nM

Challenge: // fetch IC50 given entry Cc1cc(CN(C)C)ccc1-c1cnc(NCc2c(F)ccc3c2CCO3)c2cnccc12 [Example 30]
Response given: > 500 nM
